Values were extracted from BindingDB's records for doi:10.1016/S0960-894X(97)10107-X.

biological target: 1,3-beta-glucan synthase (Candida albicans); assay: In vitro inhibition of 1,3-beta-glucan synthase in Candida albicans membrane assay.
Reported IC50 is given for each of the following compounds.
Write down the numeric answer in nM and omit the unit.

Observe how each entry below is paired with its result.
COMPOUND: CCC(C)CC(C)CCCCCCCCC(=O)N[C@@H]1C[C@@H](O)[C@@H](O)NC(=O)[C@@H]2[C@@H](O)CCN2C(=O)[C@H]([C@@H](O)CC(N)=O)NC(=O)[C@H]([C@@H](O)[C@H](O)c2ccc(O)c(NC(=O)CCN)c2)NC(=O)[C@@H]2C[C@@H](O)CN2C(=O)[C@H]([C@@H](C)O)NC1=O (stereo partly specified) [Pneumocandin analogue]
ASSAY ENDPOINT: IC50
RECORDED MEASUREMENT: 70
//
COMPOUND: CCC(C)CC(C)CCCCCCCCC(=O)N[C@@H]1C[C@@H](O)[C@@H](O)NC(=O)[C@@H]2[C@@H](O)CCN2C(=O)[C@H]([C@@H](O)CC(N)=O)NC(=O)[C@H]([C@@H](O)[C@H](O)c2ccc(O)c(N)c2)NC(=O)[C@@H]2C[C@@H](O)CN2C(=O)[C@H]([C@@H](C)O)NC1=O (stereo partly specified) [Pneumocandin analogue]
ASSAY ENDPOINT: IC50
RECORDED MEASUREMENT: 40
//
COMPOUND: CCC(C)CC(C)CCCCCCCCC(=O)N[C@@H]1C[C@@H](O)CNC(=O)[C@@H]2[C@@H](O)CCN2C(=O)[C@H]([C@@H](O)CC(N)=O)NC(=O)[C@H]([C@@H](O)Cc2ccc(O)c([N+](=O)[O-])c2)NC(=O)[C@@H]2C[C@@H](O)CN2C(=O)[C@H]([C@@H](C)O)NC1=O (stereo partly specified) [Pneumocandin analogue]
ASSAY ENDPOINT: IC50
RECORDED MEASUREMENT: 4000
//
COMPOUND: CCC(C)CC(C)CCCCCCCCC(=O)N[C@@H]1C[C@@H](O)[C@@H](O)NC(=O)[C@@H]2[C@@H](O)CCN2C(=O)[C@H]([C@@H](O)CC(N)=O)NC(=O)[C@H]([C@@H](O)[C@H](O)c2ccc(O)c(I)c2)NC(=O)[C@@H]2C[C@@H](O)CN2C(=O)[C@H]([C@@H](C)O)NC1=O (stereo partly specified) [Pneumocandin analogue]
ASSAY ENDPOINT: IC50
RECORDED MEASUREMENT: 100

Here's the next entry for you.
QUERY: # input compound: CCC(C)CC(C)CCCCCCCCC(=O)N[C@@H]1C[C@@H](O)[C@@H](O)NC(=O)[C@@H]2[C@@H](O)CCN2C(=O)[C@H]([C@@H](O)CC(N)=O)NC(=O)[C@H]([C@@H](O)[C@H](O)c2ccc(O)c(NC(=O)CN)c2)NC(=O)[C@@H]2C[C@@H](O)CN2C(=O)[C@H]([C@@H](C)O)NC1=O (stereo partly specified) [Pneumocandin analogue] ; wanted: its IC50
RESULT: 35
